Method summary: In vitro stability of Tc-99m complexes (radiochemical purity by thin layer chromatography)
Type: physicochemical
Study conditions: 120 min post formation; dl/meso mixture; read-out: % of the desired Tc-99m complex
Measured metric: remaining at 2 h (%)

a. CC(=NO)C(C)NCCCNC(C)C(C)=NO (racemic)
b. CC(=NO)C(C)NCC(C)(C)CNC(C)C(C)=NO (racemic)
Between the two listed entries a and b , which has its remaining at 2 h at the higher number? To answer, give the label that identifies your chosen option.
b

----------
Method summary: In vitro stability of Tc-99m complexes (radiochemical purity by thin layer chromatography)
Type: physicochemical
Study conditions: 2 min post formation; dl/meso mixture; read-out: % of the desired Tc-99m complex
Measured metric: remaining at 2 min (%)

CC(=NO)C(C)NCC(C)(C)CNC(C)C(C)=NO (racemic) :: 92
CC(=NO)C(C)NCCCNC(C)C(C)=NO (racemic) :: 82
